Cited source: patent US20230102554A1

# target-desc: Human PDGFRβ, cytoplasmic domain (GST-PDGFRβ) (Homo sapiens)
assay-readout: IC50

These recorded examples may help you get a feel for the data.
In [3]: df
Out[3]:
                                item_smiles                               target_desc  assay_readout  experimental_result
0  Cc1cncc(C(=O)Nc2cccc([C@H](C)Nc3cnc4cc(F)c(F)cc4n3)c2)c1  Human PDGFRβ, cytoplasmic domain (GST-PDGFRβ) (Homo sapiens)           IC50             < 300 nM
1  CCn1cc2ncc(N[C@@H](C)c3cccc(NC(=O)c4cnc5cnn(C)c5c4)c3)nc2n1  Human PDGFRβ, cytoplasmic domain (GST-PDGFRβ) (Homo sapiens)           IC50            ≥ 1000 nM
2  Cc1cncc(C(=O)Nc2cccc([C@H](C)Nc3cnc4ccc(Br)cc4n3)c2)c1  Human PDGFRβ, cytoplasmic domain (GST-PDGFRβ) (Homo sapiens)           IC50             < 300 nM
3  C[C@H](Nc1cnc2[nH]cc(-c3cnn(C)c3)c2n1)c1cccc(NC(=O)c2cc(C(F)(F)F)nn2C)c1  Human PDGFRβ, cytoplasmic domain (GST-PDGFRβ) (Homo sapiens)           IC50       300 to 1000 nM

Quick check: IC50 of "CCn1cc2ncc(N[C@@H](C)c3cccc(NC(=O)c4ccc(CN5[C@@H]6CC[C@H]5CN(C)C6)c(C)c4)c3)nc2n1" ?
< 300 nM

Now this one: "CCn1cc2ncc(N[C@@H](C)c3cccc(NC(=O)Cc4ccc(OC)cn4)c3)nc2n1"
≥ 1000 nM

Query "CCn1cc2ncc(N[C@@H](C)c3cccc(NC(=O)c4ccc(CN5CCN(C)CC5)nc4)c3)nc2n1" next
≥ 1000 nM

Now the molecule "CCn1cc2ncc(N[C@@H](C)c3cccc(NC(=O)c4cnc(C(F)(F)F)c(C)c4)c3)nc2n1"
< 300 nM

Repeat with "CCn1cc2ncc(N[C@@H](C)c3cccc(NC(=O)c4ccc(OC(F)F)c(Cl)c4)c3)nc2n1"
< 300 nM

Entry to check: "CCn1cc2ncc(N[C@@H](C)c3cccc(NC(=O)c4ccc(CN5CCC5)c(Cl)c4)c3)nc2n1"
< 300 nM

Entry "CCn1cc2ncc(N[C@@H](C)c3cccc(NC(=O)c4ccc(CN5CC6(COC6)C5)c(Cl)c4)c3)nc2n1" please
< 300 nM

----------
# target-desc: Human PDGFRα, cytoplasmic domain (GST-PDGFRα) (Homo sapiens, UniProt P16234)
# Sequence (P16234 550-1089 T674I): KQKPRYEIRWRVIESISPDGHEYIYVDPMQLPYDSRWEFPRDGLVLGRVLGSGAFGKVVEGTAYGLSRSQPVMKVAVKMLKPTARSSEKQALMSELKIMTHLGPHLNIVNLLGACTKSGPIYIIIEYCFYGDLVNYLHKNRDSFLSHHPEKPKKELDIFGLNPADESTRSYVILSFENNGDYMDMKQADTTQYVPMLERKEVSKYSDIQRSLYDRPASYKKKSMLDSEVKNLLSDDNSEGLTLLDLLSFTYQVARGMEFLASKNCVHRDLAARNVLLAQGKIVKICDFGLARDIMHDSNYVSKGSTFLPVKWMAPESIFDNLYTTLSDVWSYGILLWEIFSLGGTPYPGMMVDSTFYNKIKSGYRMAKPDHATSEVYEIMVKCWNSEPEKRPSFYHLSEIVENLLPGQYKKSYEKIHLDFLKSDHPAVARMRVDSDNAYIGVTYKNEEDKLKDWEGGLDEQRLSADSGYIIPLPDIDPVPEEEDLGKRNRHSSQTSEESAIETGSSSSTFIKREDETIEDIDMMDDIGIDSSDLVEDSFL
# assay-summary: Human PDGFRα biochemical inhibition assay (off-chip Mobility Shift Assay)
pIC50: −log10 of the molar value.
assay-readout: pIC50

Solved cases below.
                                item_smiles  experimental_result
0  Cc1cncc(C(=O)Nc2cccc([C@H](C)Nc3cnc4cnn(C5COC5)c4n3)c2)c1         6.00 to 6.52
1  CCn1cc2ncc(N[C@@H](C)c3cccc(NC(=O)c4cnc(OCC5CC5)c(C)c4)c3)nc2n1               > 6.52
2  CCn1cc2ncc(N[C@@H](C)c3cc(NC(=O)c4cc(C)c(CN5CCOCC5)c(F)c4)ccc3C)nc2n1               > 6.52

Entry "CC(C)c1cc(C(=O)Nc2cccc([C@H](C)Nc3cnc4cnn(C)c4n3)c2)n(C)n1" , system Human PDGFRα, cytoplasmic domain (GST-PDGFRα) (Homo sapiens, UniProt P16234): what pIC50 was measured?
> 6.52

----------
Listed here: items and their measured IC50.
# target-desc: Human PDGFRβ, cytoplasmic domain (GST-PDGFRβ) (Homo sapiens)

Use the examples below as a reference point.
                                   compound  experimental_result
0  COc1cc(C(=O)Nc2cccc([C@H](C)Nc3cnc4cnn(C)c4n3)c2)cnc1OC             < 300 nM
1  CCn1cc2ncc(N[C@@H](C)c3cc(NC(=O)Cc4cncc(C)c4)ccc3C)nc2n1             < 300 nM
2  CCn1cc2ncc(N[C@@H](C)c3cccc(NC(=O)c4cnc(C(C)O)s4)c3)nc2n1 (stereo partly drawn)       300 to 1000 nM

Which IC50 value is on record for "C[C@H](Nc1cnc2cnn(C)c2n1)c1cccc(NC(=O)c2cnc(C3CC3)s2)c1" ?
< 300 nM

Please answer likewise for "CCn1cc2ncc(N[C@@H](C)c3cccc(NC(=O)Nc4ccc(C(F)(F)F)nc4)c3)nc2n1"
< 300 nM

Now try "Cc1cncc(C(=O)Nc2cccc([C@H](C)Nc3cnc4cnn(CC(F)F)c4n3)c2)c1" .
300 to 1000 nM

"Cc1ncc(C(F)(F)F)cc1C(=O)Nc1cccc([C@H](C)Nc2cnc3cnn(C)c3n2)c1" ?
≥ 1000 nM

// next record "CCn1cc2ncc(N[C@@H](C)c3cccc(NC(=O)Cc4cc(C)c(Cl)cn4)c3)nc2n1"
300 to 1000 nM

Entry to check: "CCn1cc2ncc(N[C@@H](C)c3cccc(NC(=O)c4ccc(CN5CC(O)C5)c(Cl)c4)c3)nc2n1"
< 300 nM

Next: "Cc1cc(C(=O)Nc2cccc([C@H](C)Nc3cnc4cnn(C)c4n3)c2)cnc1N1CCSCC1"
< 300 nM

----------
# target-desc: Human PDGFRβ, cytoplasmic domain (GST-PDGFRβ) (Homo sapiens, UniProt P09619)
# Sequence (P09619 with tags, fused parts or gaps): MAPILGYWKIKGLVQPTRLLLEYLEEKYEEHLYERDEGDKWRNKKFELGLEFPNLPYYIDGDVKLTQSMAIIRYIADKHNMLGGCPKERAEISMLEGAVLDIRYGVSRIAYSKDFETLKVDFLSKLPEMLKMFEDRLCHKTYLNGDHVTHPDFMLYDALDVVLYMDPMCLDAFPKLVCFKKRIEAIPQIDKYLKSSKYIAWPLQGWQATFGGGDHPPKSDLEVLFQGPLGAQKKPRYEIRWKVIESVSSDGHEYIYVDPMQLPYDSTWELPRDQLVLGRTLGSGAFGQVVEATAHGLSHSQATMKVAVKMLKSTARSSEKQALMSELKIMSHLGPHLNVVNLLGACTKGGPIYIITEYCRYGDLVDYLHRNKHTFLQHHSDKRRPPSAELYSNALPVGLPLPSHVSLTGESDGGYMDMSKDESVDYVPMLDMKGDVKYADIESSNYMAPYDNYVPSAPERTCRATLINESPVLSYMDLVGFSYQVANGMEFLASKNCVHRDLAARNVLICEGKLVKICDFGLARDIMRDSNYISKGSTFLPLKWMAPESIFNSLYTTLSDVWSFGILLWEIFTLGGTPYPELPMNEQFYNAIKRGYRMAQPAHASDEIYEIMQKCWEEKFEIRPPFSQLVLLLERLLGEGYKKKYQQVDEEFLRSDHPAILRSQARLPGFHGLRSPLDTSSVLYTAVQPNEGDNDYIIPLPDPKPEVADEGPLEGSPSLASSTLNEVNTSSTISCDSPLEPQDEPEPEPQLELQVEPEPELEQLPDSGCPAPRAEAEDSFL
pIC50: −log10 of the molar value.
assay-readout: pIC50

Entry under review: CSc1cncc(C(=O)Nc2cccc([C@H](C)Nc3cnc4cnn(C)c4n3)c2)c1 [Compound 225] . Reported pIC50?
> 6.52

Now give it for CCn1ccc2ncc(N[C@@H](C)c3cccc(NC(=O)c4cncc(C)c4)c3)nc21 [Compound 82] too.
6.00 to 6.52

Can you handle CCn1cc2ncc(N[C@@H](C)c3cccc(NC(=O)c4ccc(OC(F)(F)F)c(Cl)c4)c3)nc2n1 [Compound 437] next?
> 6.52

Okay, and Cc1cncc(C(=O)Nc2cccc([C@H](C)Nc3cnc4cc(C(F)(F)F)ccc4n3)c2)c1 [Compound 35] ?
> 6.52

Another: CCn1cc2ncc(N[C@@H](C)c3cc(NC(=O)c4cc(F)c(CN5CCN(C)CC5)c(Cl)c4)ccc3C)nc2n1 [Compound 518]
> 6.52

----------
The reader will find reported pIC50 values listed item by item below.
# target-desc: Human PDGFRβ, cytoplasmic domain (GST-PDGFRβ) (Homo sapiens, UniProt P09619)
pIC50: −log10 of the molar value.

Worked cases, pIC50 given:
>>> print(df.to_string())
                                   molecule  assay_readout  experimental_result
0  CCn1cc2ncc(N[C@@H](C)c3cccc(NC(=O)c4ccc(N5CCOCC5)c(Cl)c4)c3)nc2n1 [Compound 360]          pIC50               > 6.52
1  CCn1cc2ncc(N[C@@H](C)c3cccc(NC(=O)c4cc(F)c(CN5CC6(COC6)C5)c(Cl)c4)c3)nc2n1 [Compound 490]          pIC50               > 6.52
2  CCn1cc2ncc(N[C@@H](C)c3cccc(NC(=O)Cc4ccncc4)c3)nc2n1 [Compound 644]          pIC50               ≤ 6.00
3  C[C@H](Nc1cnc2ccoc2n1)c1cc(NC(=O)c2ccc(C(F)(F)F)nc2)ccc1F [Compound 617]          pIC50               > 6.52
4  CCn1cc2ncc(N[C@@H](C)c3cc(NC(=O)c4cnc(C(F)(F)F)c(C)c4)ccc3F)nc2n1 [Compound 335]          pIC50               > 6.52

Item under review: Cc1c[nH]c2ncc(N[C@@H](C)c3cccc(NC(=O)c4cncc(C(F)F)c4)c3)nc12 [Compound 556] . Reported pIC50?
> 6.52

Queued: Cc1cc(C(=O)Nc2cccc([C@H](C)Nc3cnc4cn[nH]c4n3)c2)cnc1C(F)(F)F [Compound 98]
> 6.52

----------
A collection of molecules and their measured pIC50
# target-desc: Human PDGFRα, cytoplasmic domain (GST-PDGFRα) (Homo sapiens, UniProt P16234)
# assay-summary: Human PDGFRα biochemical inhibition assay (off-chip Mobility Shift Assay)
pIC50: −log10 of the molar value.

# annotated cases, reported pIC50 shown
>>> print(df.to_string())
                                   molecule  assay_readout  experimental_result
0  CCn1cc2ncc(N[C@@H](C)c3cccc(NC(=O)Cc4cc(C)c(F)cn4)c3)nc2n1 [Compound 686]          pIC50               > 6.52
1  CCn1cc2ncc(N[C@@H](C)c3cccc(NC(=O)c4ccc(CN5CC[C@H](F)C5)c(C)c4)c3)nc2n1 [Compound 493]          pIC50               > 6.52
2  C[C@H](Nc1cnc2cc(C3CC3)sc2n1)c1cc(NC(=O)c2ccc(C(F)(F)F)nc2)ccc1F [Compound 616]          pIC50               > 6.52
3  Cc1cncc(C(=O)Nc2ccc(F)c([C@H](C)Nc3cnc4cn(CC5CNCCO5)nc4n3)c2)c1 (stereo partly shown) [Compound 411]          pIC50               > 6.52

Field request: pIC50 | item: C[C@H](Nc1cnc2cnn(C)c2n1)c1cccc(NC(=O)c2cccc(S(C)(=O)=O)c2)c1 [Compound 226]
> 6.52

Also check CCn1cc2ncc(N[C@@H](C)c3cc(NC(=O)c4ccc(Cl)c(C)c4)ccc3C)nc2n1 [Compound 508]
> 6.52

Consider next the molecule CCn1cc2ncc(N[C@@H](C)c3cccc(NC(=O)Nc4cnn(CC(C)C)c4)c3)nc2n1 [Compound 740] in the same way.
> 6.52

# iterate: CCn1cc2ncc(N[C@@H](C)c3cc(NC(=O)Cc4ccc(Cl)cn4)ccc3C)nc2n1 [Compound 657]
> 6.52

Param item: CCn1cc2ncc(N[C@@H](C)c3cc(NC(=O)c4ccc(C(F)(F)F)nc4)cc(F)c3F)nc2n1 [Compound 491]
6.00 to 6.52

Param item: CCn1cc2ncc(N[C@@H](C)c3cccc(NC(=O)Cc4ccc(OC)c(F)c4)c3)nc2n1 [Compound 626]
> 6.52

Entry C[C@H](Nc1cnc2cn[nH]c2n1)c1cccc(NC(=O)c2cncc(CO)c2)c1 [Compound 92] please
> 6.52

Please answer likewise for Cc1cncc(C(=O)Nc2cccc([C@H](C)Nc3cnc4cccnc4n3)c2)c1 [Compound 5]
> 6.52

What would you report for Cc1ccc(C(=O)Nc2cccc([C@H](C)Nc3cnc4cnn(C)c4n3)c2)cc1F [Compound 188] ?
> 6.52

Queued: COc1cncc(C(=O)Nc2cccc([C@H](C)Nc3cnc4[nH]cc(-c5cnn(C)c5)c4n3)c2)c1 [Compound 586]
> 6.52

# repeat for CCn1cc2ncc(N[C@@H](C)c3cc(NC(=O)c4cnc(F)c(C)c4)ccc3C)nc2n1 [Compound 512]
> 6.52

Lookup Cc1cncc(C(=O)Nc2cccc([C@H](C)Nc3cnc4cccc(F)c4c3)c2)c1 [Compound 29]
> 6.52
